Reference source for all entries: patent US20260184708A1

- target: TRPC4 (Homo sapiens)
- Construct: expressed in transfected cells; host or cells: HEK-TREx (HekTrex-293), cell line ICLN-1694, tetracycline-induced
- Sequence (Q9UBN4 1-982 isoform Q9UBN4-5): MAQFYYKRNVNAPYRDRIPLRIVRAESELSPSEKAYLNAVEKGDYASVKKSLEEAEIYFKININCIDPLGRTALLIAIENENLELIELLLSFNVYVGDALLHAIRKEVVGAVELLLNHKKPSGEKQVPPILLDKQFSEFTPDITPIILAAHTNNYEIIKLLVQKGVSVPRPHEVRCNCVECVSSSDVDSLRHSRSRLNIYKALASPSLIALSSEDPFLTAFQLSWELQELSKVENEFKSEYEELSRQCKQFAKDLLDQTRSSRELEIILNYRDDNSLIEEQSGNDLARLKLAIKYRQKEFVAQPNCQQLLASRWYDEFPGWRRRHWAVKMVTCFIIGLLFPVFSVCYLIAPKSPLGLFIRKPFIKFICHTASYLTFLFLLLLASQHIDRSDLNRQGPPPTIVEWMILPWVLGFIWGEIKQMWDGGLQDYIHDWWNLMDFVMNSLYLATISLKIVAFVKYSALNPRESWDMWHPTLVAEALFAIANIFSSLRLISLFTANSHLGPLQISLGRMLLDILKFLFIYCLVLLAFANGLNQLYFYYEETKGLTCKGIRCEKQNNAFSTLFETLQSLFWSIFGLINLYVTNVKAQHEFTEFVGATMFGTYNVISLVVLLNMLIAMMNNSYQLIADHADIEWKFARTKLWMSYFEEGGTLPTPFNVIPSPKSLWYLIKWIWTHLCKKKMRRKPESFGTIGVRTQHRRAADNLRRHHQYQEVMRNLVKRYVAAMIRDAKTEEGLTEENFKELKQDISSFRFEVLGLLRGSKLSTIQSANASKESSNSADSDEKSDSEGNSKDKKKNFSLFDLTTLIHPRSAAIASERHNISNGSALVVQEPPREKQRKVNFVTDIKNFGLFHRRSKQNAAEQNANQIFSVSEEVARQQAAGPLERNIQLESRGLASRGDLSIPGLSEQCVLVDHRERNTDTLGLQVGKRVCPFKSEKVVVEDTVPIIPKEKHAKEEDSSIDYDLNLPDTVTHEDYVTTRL
- test_name: TRPC4 FLIPR Assay (HEK-TREx hTRPC4, Englerin A stimulation)
- Type: cell-based
- run_parameters: Table 8; HEK-TREx hTRPC4; read-out: TRPC4 FLIPR IC50
pIC50: −log10 of the molar value.
The entries below come with measured pIC50 values attached.

C[C@@H](c1cccnc1CC(F)F)n1nnc2c1CCN(c1cn[nH]c(=O)c1Cl)C2 [drawing 991] : 6.00 to 11.00
O=c1[nH]ncc(N2CCc3c(nnn3Cc3ccc(F)cc3CC(F)(F)F)C2)c1Cl [drawing 994] : 6.00 to 11.00
N#Cc1c(N2CCc3c(nnn3Cc3ccccc3C(F)(F)F)C2)cn[nH]c1=O [drawing 959] : 5.30 to 6.00

**Query** Quick check: pIC50 of O=c1[nH]ncc(N2CCc3c(ncn3Cc3ccc(F)cc3C(F)F)C2)c1Cl [drawing 960] ?
**Result** 6.00 to 11.00

**Query** Now consider C[C@H](c1ccccc1C(F)(F)F)n1nnc2c1CCN(c1cn[nH]c(=O)c1Cl)[C@H]2C [drawing 970] .
**Result** 6.00 to 11.00

**Query** Entry to check: "CCc1ccccc1Cn1cnc2c1CCN(c1cn[nH]c(=O)c1Cl)C2"
**Result** 6.00 to 11.00
